experiment: PAMPA permeability
Task for the reader: assign each of the following compounds its reported Perm. (1 × 10^−6 cm/sec).

Query: Perm. (1 × 10^−6 cm/sec); subject: CC1=C(C(=O)Nc2cc(C(=O)O)ccn2)C(c2ccc(C)cc2Cl)N=C(Nc2ncc(-c3ccccc3)o2)N1 (stereo not shown) [Compound 103]
4.14 1 × 10^−6 cm/sec

Likewise for CC1=C(C(=O)NCc2cnn(C)c2)C(c2ccc(C)cc2Cl)N=C(Nc2nc3ncccc3o2)N1 (stereo not shown) [Compound 105] ?
62.84 1 × 10^−6 cm/sec

Likewise for CC1=C(C(=O)Nc2cc(C(=O)O)ccn2)C(c2ccc(-c3ccc(C(F)(F)F)nc3)cc2Cl)N=C(Nc2nc3ccc(F)cc3o2)N1 (stereo not shown) [Compound 70] ?
<1 1 × 10^−6 cm/sec

Likewise for CC1=C(C(=O)Nc2cc(C(=O)O)ccc2F)C(c2ccccc2Cl)N=C(Nc2nc3ccc(F)cc3o2)N1 (stereo not shown) [Compound 30] ?
2.2 1 × 10^−6 cm/sec
